The values you see were collected from paper PMC6149664.

# Test Description: Isocratic RP-HPLC lipophilicity (k, log k, extrapolated log kw, slope S), MeOH/water mobile phases
# Assay type: physicochemical
# Condition Parameters: MeOH/water 60:40 (v/v)
// assign class 1 if capacity factor k (RP-HPLC) falls strictly below 5, else class 0 (ties count as class 0)

Find out if reported capacity factor k (RP-HPLC) for CCCCOC(=O)Nc1cccc(C(O)CN2CCN(c3ccccc3F)CC2)c1.Cl (centres unmarked) [8d] is less than 5
class 0

Find out if reported capacity factor k (RP-HPLC) for CCCCOC(=O)Nc1ccc(C(O)CN2CCN(c3ccccc3F)CC2)cc1.Cl (centres unmarked) [8h] is less than 5
class 0

Find out if reported capacity factor k (RP-HPLC) for COC(=O)Nc1cccc(C(O)CN2CCN(c3ccccc3F)CC2)c1.Cl (centres unmarked) [8a] is less than 5
class 1

Find out if reported capacity factor k (RP-HPLC) for COC(=O)Nc1ccc(C(O)CN2CCN(c3ccccc3F)CC2)cc1.Cl (centres unmarked) [8e] is less than 5
class 1

Find out if reported capacity factor k (RP-HPLC) for CCCOC(=O)Nc1ccc(C(O)CN2CCN(c3ccccc3F)CC2)cc1.Cl (centres unmarked) [8g] is less than 5
class 0

Find out if reported capacity factor k (RP-HPLC) for CCOC(=O)Nc1ccc(C(O)CN2CCN(c3ccccc3F)CC2)cc1.Cl (centres unmarked) [8f] is less than 5
class 1

Find out if reported capacity factor k (RP-HPLC) for CCCOC(=O)Nc1cccc(C(O)CN2CCN(c3ccccc3F)CC2)c1.Cl (centres unmarked) [8c] is less than 5
class 0
